molecular target: IGFBP-4 protease activity in follicular fluid (Homo sapiens, UniProt Q13219); construct: Follicular fluid was obtained at the time of follicle aspiration for in vitro fertilization (IVF) procedures; from tissue; host or cells: IVF follicular fluid; assay: IGFBP-4 proteolysis in IVF follicular fluid, cell-free [125I]IGFBP-4 assay; type: biochemical; conditions: added to the assay during 6 h incubation
Sequence (Q13219 82-1627): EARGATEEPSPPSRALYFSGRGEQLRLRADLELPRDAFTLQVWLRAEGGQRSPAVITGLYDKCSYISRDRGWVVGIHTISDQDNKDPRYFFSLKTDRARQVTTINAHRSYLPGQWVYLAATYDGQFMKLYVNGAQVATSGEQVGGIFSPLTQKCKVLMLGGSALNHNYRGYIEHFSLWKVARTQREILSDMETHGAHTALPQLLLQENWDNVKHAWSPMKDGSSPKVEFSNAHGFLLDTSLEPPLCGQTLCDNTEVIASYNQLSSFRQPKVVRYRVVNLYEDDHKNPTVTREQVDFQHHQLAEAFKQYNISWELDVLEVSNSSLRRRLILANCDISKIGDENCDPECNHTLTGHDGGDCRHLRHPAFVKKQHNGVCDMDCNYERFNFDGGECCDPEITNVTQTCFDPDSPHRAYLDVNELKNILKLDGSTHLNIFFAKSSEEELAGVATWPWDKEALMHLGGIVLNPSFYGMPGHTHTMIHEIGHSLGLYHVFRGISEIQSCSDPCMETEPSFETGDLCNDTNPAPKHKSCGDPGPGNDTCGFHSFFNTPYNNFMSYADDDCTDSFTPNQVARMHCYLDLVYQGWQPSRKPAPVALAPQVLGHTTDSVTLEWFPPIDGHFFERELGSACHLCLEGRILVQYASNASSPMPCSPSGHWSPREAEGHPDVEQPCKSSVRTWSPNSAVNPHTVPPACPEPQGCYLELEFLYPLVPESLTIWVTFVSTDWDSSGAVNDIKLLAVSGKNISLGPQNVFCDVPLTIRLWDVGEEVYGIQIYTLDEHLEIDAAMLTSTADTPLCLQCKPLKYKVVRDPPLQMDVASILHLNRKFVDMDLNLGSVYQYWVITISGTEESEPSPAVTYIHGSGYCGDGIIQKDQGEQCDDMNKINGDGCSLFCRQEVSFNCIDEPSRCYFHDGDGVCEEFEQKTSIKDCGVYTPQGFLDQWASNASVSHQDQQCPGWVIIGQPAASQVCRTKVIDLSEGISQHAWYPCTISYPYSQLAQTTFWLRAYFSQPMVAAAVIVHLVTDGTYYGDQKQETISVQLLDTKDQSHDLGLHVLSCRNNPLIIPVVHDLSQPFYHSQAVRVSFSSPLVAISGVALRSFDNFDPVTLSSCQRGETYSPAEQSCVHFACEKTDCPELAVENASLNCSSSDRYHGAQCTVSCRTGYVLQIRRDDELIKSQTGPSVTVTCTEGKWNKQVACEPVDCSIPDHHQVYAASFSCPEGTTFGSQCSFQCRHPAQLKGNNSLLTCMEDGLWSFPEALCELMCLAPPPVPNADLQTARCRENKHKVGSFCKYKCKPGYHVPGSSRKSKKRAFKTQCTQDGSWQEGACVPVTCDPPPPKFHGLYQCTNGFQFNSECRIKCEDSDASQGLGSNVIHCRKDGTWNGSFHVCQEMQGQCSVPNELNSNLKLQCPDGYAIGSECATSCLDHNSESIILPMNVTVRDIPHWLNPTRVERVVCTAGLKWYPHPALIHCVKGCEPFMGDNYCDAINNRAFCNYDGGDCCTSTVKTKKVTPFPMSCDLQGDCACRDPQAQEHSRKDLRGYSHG
MEASURED METRIC: Effect on IGFBP-4 protease activity in IVF follicular fluid

Cl.NCCc1ccc(S(=O)(=O)F)cc1 = not
c1cnc2c(c1)ccc1cccnc12 = completely suppressed
O=C(O)CN(CCN(CC(=O)O)CC(=O)O)CC(=O)O = completely suppressed
O=S(=O)(F)Cc1ccccc1 = not
